Test system: S. cerevisiae Mot1-301 ts growth rescue, BacTiter-Glo ATP luminescence
protocol_text: restored Mot1-301 yeast growth at 38.5C – whole organism, S. cerevisiae, Mot1-301 ts mutant, luminescence, dose retest, SUMOylation pathway inhibitor project, confirmation (AID 463204);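 note: growth at restrictive 38.5 degrees C of Mot1-301 OY566 strain; actives raise luminescence by restoring growth of the ts mutant at high temperature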
Active and inactive are the calls of the source.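 Rule for the calls: active = AC50 no more than ten times the top concentration tested, that is within one log above it; inconclusive = flat curve fit with activity between 30% and 70%, or invalid poor fit; inactive = AC50 beyond ten times the top tested dose.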
measured_property: AC50

Query :: Consider the molecule shown here: O=C1N=C(N2CCN(c3ccccc3)CC2)SC1Cc1ccccc1 (stereo not given) What is its recorded AC50?
Result :: > 42 µM (inactive)

Query :: Which measured AC50 value corresponds to c1ccc2nc3c(nc2c1)OCC1CCCCN31 (stereo not given) ?
Result :: > 42 µM (inactive)

Query :: I'd like to know its AC50. The molecule in question is CCCNC(=O)CN(c1ccc(F)cc1)S(=O)(=O)c1ccc2c(c1)OCCO2
Result :: > 42 µM (inactive)

Query :: Return reported AC50; argument: CCN(CC)S(=O)(=O)c1ccc(S(=O)(=O)N2CCC(C(=O)NC3CCN(Cc4ccccc4)CC3)CC2)cc1
Result :: > 42 µM (inactive)

Query :: Give its AC50 value. Item: COc1ccc(S(=O)(=O)Nc2ccc(NC(C)=O)cc2)cc1OC
Result :: > 42 µM (inactive)

====

Tested on: S. cerevisiae Mot1-301 ts growth rescue, BacTiter-Glo ATP luminescence
protocol_text: restored Mot1-301 yeast growth at 38.5C – whole organism, S. cerevisiae, Mot1-301 ts mutant, luminescence, dose retest, SUMOylation pathway inhibitor project, confirmation (AID 463204);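 note: growth at restrictive 38.5 degrees C of Mot1-301 OY566 strain; actives raise luminescence by restoring growth of the ts mutant at high temperature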
The source made the active and inactive calls.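 The calls were made as follows: active = AC50 no more than ten times the top concentration tested, that is within one log above it; inconclusive = flat curve fit with activity between 30% and 70%, or invalid poor fit; inactive = AC50 beyond ten times the top tested dose.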
measured_property: AC50

Query :: Entry Cc1nc(N2CCN(c3ccccn3)CC2)c2c(C)c(C(=O)N3CCN(c4ccccc4F)CC3)sc2n1 : reported AC50 = ?
Result :: > 42 µM (inactive)

Query :: Fill in: AC50 of NC(=O)c1cc(S(=O)(=O)N2CCCC2)ccc1OCc1ccc(F)cc1 is ___
Result :: > 42 µM (inactive)

Query :: Can you look up the measured AC50 of Cc1ccc(C(=O)N/C(=C\c2cccs2)C(=O)NCCc2c[nH]c3ccccc23)cc1 for me?
Result :: > 42 µM (inactive)

Query :: Quick one: AC50 of CCN(CC)CC(=O)Nc1ccc(Oc2ccc(NC(=O)CN(CC)CC)cc2)cc1 ?
Result :: > 42 µM (inactive)

Query :: Name the reported AC50 value associated with the molecule N#CCSc1nc2c(c(C3CC=CCC3)c1C#N)CCC2 (configuration not stated)
Result :: > 42 µM (inactive)

Query :: Any idea what AC50 was measured for Cc1ccc2c(c1)C(O)(CC(=O)c1cccnc1)C(=O)N2 (configuration not stated) ?
Result :: > 42 µM (inactive)

Query :: Consider the molecule C=CCNC(=O)NC(=O)COC(=O)CCCSc1nc2ccccc2[nH]1 and give its measured AC50.
Result :: > 42 µM (inactive)

Query :: What value of AC50 has been reported for the following molecule? O=C(CCCC(=O)N(CC(=O)NC1CCCC1)c1cccc(F)c1)Nc1ccccn1
Result :: > 42 µM (inactive)

Query :: Please report the recorded AC50 for Cn1nc(C(C)(C)C)c([N+](=O)[O-])c1C(=O)Nc1ccccc1 .
Result :: > 42 µM (inactive)

Query :: Returns the measured AC50 for the input molecule. Input: CCCCn1c2c(c(=O)n(C)c1=O)C(c1ccc(OC)cc1)N1CCCCCC1=N2 (configuration not stated)
Result :: > 42 µM (inactive)

Query :: Quick check: AC50 of O=C(Cn1sc2ccccc2c1=O)NC12CC3CC(CC(C3)C1)C2 ?
Result :: 20.7 µM

Query :: Look at this molecule and give its reported AC50. CCCCCCCCCCOC(=O)Cn1c(COc2ccccc2OC)[n+](C)c2ccccc21
Result :: 13.4 µM

Query :: State the recorded AC50 for this entry: CCOc1ccccc1Nc1nnc(SCc2nnc(-c3cc(OC)c(OC)c(OC)c3)o2)s1
Result :: > 42 µM (inactive)

Query :: Please report the recorded AC50 for O=C(c1ccc(Br)cc1)C(CN1CCOCC1)c1ccccc1 (configuration not stated) .
Result :: 0.65 µM

Query :: Field request: AC50 | item: CCOC(=O)C1CCN(C(=O)c2sccc2Cl)CC1
Result :: > 42 µM (inactive)

Query :: Fill in: AC50 of O=C(CCSc1ccccc1)Nc1ncccn1 is ___
Result :: > 42 µM (inactive)

Query :: Which AC50 reading was recorded for the molecule CC/C(=N\Nc1ccc([N+](=O)[O-])cc1)c1ccccc1 ?
Result :: > 42 µM (inactive)

Query :: Which AC50 value belongs to COc1ccc(CN(C)C(=O)c2sccc2-c2ccccc2)c(OC)c1 ?
Result :: > 42 µM (inactive)

Query :: I am curious: what AC50 value has been reported for COc1ccc2c(c1)[C@H]1[C@H](CO2)[C@H](c2ccccc2)[C@]2(C)C(=O)Nc3cc(F)ccc3C(=O)N12 ?
Result :: 7.87 µM

Query :: Please report the recorded AC50 for CCOc1ccc(N(CC)S(=O)(=O)c2cccc3nsnc23)cc1 .
Result :: > 42 µM (inactive)

Query :: Request the reported AC50 associated with O=C1c2nccnc2C(=O)N1c1ccc(C(F)(F)F)cc1
Result :: > 42 µM (inactive)

Query :: I would be grateful if you could share the reported AC50 for Cc1ccc(C2C(C(=O)c3cccs3)=C(O)C(=O)N2c2ccc(S(N)(=O)=O)cc2)cc1 (configuration not stated) .
Result :: > 42 µM (inactive)
